# SYSTEM: Retinoic acid receptor RXR-alpha (Homo sapiens)
# Sequence (P19793 whole entry, the tested form may be a part): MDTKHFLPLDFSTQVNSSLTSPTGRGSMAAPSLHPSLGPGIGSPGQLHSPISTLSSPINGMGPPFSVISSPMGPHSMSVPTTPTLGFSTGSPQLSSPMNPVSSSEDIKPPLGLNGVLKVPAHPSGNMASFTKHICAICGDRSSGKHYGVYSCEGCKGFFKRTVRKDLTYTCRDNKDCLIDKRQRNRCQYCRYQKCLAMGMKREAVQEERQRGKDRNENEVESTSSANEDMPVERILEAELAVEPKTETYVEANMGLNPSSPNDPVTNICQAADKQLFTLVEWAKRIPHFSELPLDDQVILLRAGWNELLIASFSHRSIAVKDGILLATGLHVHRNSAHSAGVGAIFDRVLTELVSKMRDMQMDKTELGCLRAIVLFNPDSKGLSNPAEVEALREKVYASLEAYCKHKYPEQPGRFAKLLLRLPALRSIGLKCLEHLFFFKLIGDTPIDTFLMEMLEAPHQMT
# ASSAY_INFO: Displacement of [3H]-9-cis-RA from human GST-tagged N-terminal truncated RXRalpha after 1 hr by liquid scintillation counting
Measured IC50 accompanies every entry in the list below.

A selection of reference data follows.
molecular_string=CC1=C(CCC#N)c2cc(F)ccc2/C1=C\c1ccc(C(C)C)cc1 system="Retinoic acid receptor RXR-alpha (Homo sapiens)" meas_value="≥ 100 µM"
molecular_string=CC1=C(CC(=O)O)c2cc(F)ccc2/C1=C\c1ccccc1 system="Retinoic acid receptor RXR-alpha (Homo sapiens)" meas_value="10.7 µM"
molecular_string=CCOc1ccc(/C=C2/C(C)=C(CC(=O)O)c3cc(F)ccc32)cc1 system="Retinoic acid receptor RXR-alpha (Homo sapiens)" meas_value="≥ 100 µM"
molecular_string=CC1=C(CC(=O)O)c2cc(F)ccc2/C1=C\c1ccc(C(C)(C)C)cc1 system="Retinoic acid receptor RXR-alpha (Homo sapiens)" meas_value="≥ 100 µM"
molecular_string=CC1=C(CC(=O)O)c2cc(C(C)C)ccc2/C1=C\c1ccc(C(C)C)cc1 system="Retinoic acid receptor RXR-alpha (Homo sapiens)" meas_value="≥ 100 µM"

Prompt: Would you mind telling me what IC50 value was observed for CC1=C(CC(=O)O)c2cc(F)ccc2/C1=C\c1ccc(-c2ccccn2)cc1 ?
Completion: ≥ 100 µM

Prompt: Would you mind telling me what IC50 value was observed for CC1=C(CCC(=O)O)c2cc(F)ccc2/C1=C\c1ccc(C(C)C)cc1 ?
Completion: 5.71 µM

Prompt: Would you mind telling me what IC50 value was observed for CC(C)c1ccc(/C=C2\C=C(CC(=O)O)c3cc(F)ccc32)cc1 ?
Completion: 1.6 µM

Prompt: Would you mind telling me what IC50 value was observed for CCc1ccc2c(c1)C(CC(=O)O)=C(C)/C2=C/c1ccc(C(C)C)cc1 ?
Completion: ≥ 100 µM

Prompt: Would you mind telling me what IC50 value was observed for CC1=C(CC(=O)O)c2cc(F)ccc2/C1=C\c1ccc(C#N)cc1 ?
Completion: ≥ 100 µM
